# System: HCT-116 colon
# protocol description: NCI tumour cell line growth inhibition, 48 h
measurement type: TGI

// query Given the entry O=C1c2ccc([N+](=O)[O-])cc2-c2c1c1ccccc1c(=O)n2CCCNCCCNCCCn1c2c(c3ccc([N+](=O)[O-])cc3c1=O)C(=O)c1ccccc1-2 , what TGI was observed with HCT-116 colon?
// result 2.91 µM

// query Given the entry CCOC(=O)C1=C(c2ccccc2)N(C)c2ccccc2S1 , what TGI was observed with HCT-116 colon?
// result 73.3 µM

// query Given the entry CCn1c(C(=O)N(C2CC2)C2CC2)cc2c3c(ncn3C)c(Nc3cc(C)n(C)n3)nc21 , what TGI was observed with HCT-116 colon?
// result > 100 µM

// query Given the entry COc1cc2c(c(OC)c1OC)-c1ccc(N)c(=O)cc1[C@@H](NC(C)=O)CC2 , what TGI was observed with HCT-116 colon?
// result > 100 µM

----------
# Tested on: SK-OV-3 ovarian
# protocol description: NCI tumour cell line growth inhibition, 48 h
Give TGI for every item shown.

// query Dear colleague, I am looking for the recorded TGI of the following compound: O=C(c1ccc(Cl)cc1)c1ccc(OCCCCCCCCCCOc2ccc(C(=O)c3ccc(Cl)cc3)cc2)cc1
// result > 100 µM

// query Dear colleague, I am looking for the recorded TGI of the following compound: COc1ccccc1/C=C/[N+](=O)[O-]
// result 17.7 µM

// query Dear colleague, I am looking for the recorded TGI of the following compound: CS(=O)(=O)OCCN1CCN(C(=O)c2cccc3c(Nc4ccc(S(=O)(=O)N=C(N)N)cc4)c4ccccc4nc23)CC1
// result > 100 µM

// query Dear colleague, I am looking for the recorded TGI of the following compound: CCOP(=O)(OCC)C(Nc1cccc(F)c1)c1ccccc1 (stereo not given)
// result > 100 µM

// query Dear colleague, I am looking for the recorded TGI of the following compound: O=C(O)[C@@H]1[C@H](C(=O)O)[C@H](C(=O)O)C[C@@H]1C(=O)O
// result > 100 µM

----------
# System: SN12C renal
# protocol description: NCI tumour cell line growth inhibition, 48 h
measurement type: TGI

// query Given the entry O=[N+]([O-])c1ccc(S[C@@H]2[C@H]3c4c(-c5ccccc5)[nH]c(-c5ccccc5)c4[C@@H]2C[C@H]3Cl)cc1 , what TGI was observed with SN12C renal?
// result 22.2 µM

// query Given the entry Nc1ncnc2c1ncn2C1CCC(COS(N)(=O)=O)C1 (stereo not given) , what TGI was observed with SN12C renal?
// result > 100 µM

// query Given the entry CC(=O)OCC1OC(n2c3c(c(-c4cccc5ccccc45)c(C#N)c2=S)CCCC3)C(OC(C)=O)C(OC(C)=O)C1OC(C)=O (stereo not given) , what TGI was observed with SN12C renal?
// result > 100 µM

// query Given the entry OCCCOC(c1ccccc1)(c1ccccc1)c1ccccc1 , what TGI was observed with SN12C renal?
// result > 100 µM

// query Given the entry COC[C@@H](N=CN1CCc2cc(OC)c(OC)cc2[C@@H]1C)C(C)(C)C , what TGI was observed with SN12C renal?
// result > 100 µM

// query Given the entry Cn1nc2n(c1=O)CCCN2 , what TGI was observed with SN12C renal?
// result > 100 µM

// query Given the entry COc1ccccc1/C=C/[N+](=O)[O-] , what TGI was observed with SN12C renal?
// result 8.03 µM

// query Given the entry CN1CCN(c2ccc(NC(=O)c3nc4ccc5[nH]ncc5c4c4c3CCCC4)cc2C(F)(F)F)CC1 , what TGI was observed with SN12C renal?
// result 1.65 µM

// query Given the entry CCOC(=O)/C(O)=C/c1cc(OC)cc(=O)o1 , what TGI was observed with SN12C renal?
// result > 100 µM

// query Given the entry O=Nc1c(-c2c(O)[nH]c3ccc([N+](=O)[O-])cc23)[nH]c2ccc(O)cc12 , what TGI was observed with SN12C renal?
// result > 100 µM

From: PubChem BioAssay (NCI)
